The measured values listed here are drawn from PubChem BioAssay (NCI).

Tested on: SW-620 colon
Assay: NCI tumour cell line growth inhibition, 48 h
measured.parameter: TGI

COC(=O)C(=O)C1CCCCC(C2=NC3NN=C(N)N3C2=O)C1=O (stereo unspecified) ... > 100 µM
N#CC[C@H](C1CCCC1)n1cc(-c2ncnc3[nH]ccc23)cn1 ... > 96.6 µM
Nn1c(N=Nc2c(O)[nH]c3ccccc23)n[nH]c1=S ... > 100 µM
COc1cc(NCc2ccc3n2-c2ccccc2OC3)cc(OC)c1OC ... > 100 µM
NC(N)=NS(=O)(=O)c1ccc(NNc2c3ccccc3nc3c(C(=O)Nc4ccc(S(N)(=O)=O)cc4)cccc23)cc1 ... > 100 µM
COc1cc(C2C(C#N)=C(N)Oc3cc4c(cc32)OCO4)cc2c1OCO2 (stereo unspecified) ... > 100 µM

For the molecule CCOC(=O)c1c(N2CCOCC2)[nH]c(=O)c(C(c2ccc(Cl)c([N+](=O)[O-])c2)c2c(O)c(C(=O)OCC)c(N3CCOCC3)[nH]c2=O)c1O , what TGI is on record?
58.7 µM

For the molecule CC(=O)/C=C/C1=C(c2ccsc2)c2ccccc2CC1 , what TGI is on record?
> 100 µM

For the molecule O=C(O)Cc1ccc2c(c1O)C(=O)c1c(ccc(CC(=O)O)c1O)C2=O , what TGI is on record?
> 100 µM

For the molecule CCCCCCCCCC(=O)CC(=O)c1c(O)cc(O)cc1O , what TGI is on record?
> 75 µM

For the molecule Cc1cc(=O)[nH]c(CNC(=O)Cc2ccccc2)n1 , what TGI is on record?
> 100 µM

For the molecule N#Cc1c(Oc2ccc(F)c(NC(=O)Cc3cccc(C(F)(F)F)c3)c2)ccc2nc(NC(=O)C3CC3)sc12 , what TGI is on record?
> 100 µM

For the molecule O=C(CC1(O)C(=O)Nc2c(Cl)ccc(Cl)c21)c1ccc(C2CC2)cc1 (stereo unspecified) , what TGI is on record?
13 µM

For the molecule C=C=[CH][Sn]([c]1ccccc1)([c]1ccccc1)[c]1ccccc1 , what TGI is on record?
2.17 µM

For the molecule O=C(/C=C/c1ccc(F)c(F)c1)OCCc1ccccc1 , what TGI is on record?
> 100 µM

For the molecule O=c1[nH]c2c(O)cccc2c2cc3c(c(O)c12)OCO3 , what TGI is on record?
> 100 µM
